Test system: MS2 coat protein
Assay Comment: apparent KD of MS2 coat protein; designed switch direction (-1 OFF switch, 1 ON switch): -1; higher = weaker reporter binding
Study Conditions: input ligand: microRNA oligo, concentration not stated
# cutoff 50 nM applies to apparent KD of MS2 coat protein; >= gives TRUE, < gives FALSE

Sequence	Discrete Label
AGCUAGUGCCGAGGAUAUACAUGAGGAUCACCCAUGUAGGCCAGUCGGUUUCUGACUGGCGAGAUGUAGAAGGCGGCGUUGGCA [JL ENG2 1.51] (Eterna round: R96, puzzle: Exclusion NG 2)	FALSE
CUAGCGGGUGUAGGAUAUCGGACUGUUUCAGUCUGAGAAGGACAUGAGGAUCACCCAUGUAUUGCUGCGUGAGUAGCACGCUAG [JL ENG1 3.98] (Eterna round: R96, puzzle: Exclusion NG 1)	FALSE
ACAAGAUCGGAAGGAUAUUGUACAUGAGGAUCACCCAUGUAAUAAAUGAGGAUCACGGAUGUAGACAAGAAGGUCCGGAUAAGA [Ostracism 4 - Jieux - Exclusion NG 2] (Eterna round: R96, puzzle: Exclusion NG 2)	FALSE
GGUGGACAUGAGGAUCACCCAUGUGAGGAUAUCGGCUGGUACGUGUUGGCUGGCAUCUCGAGAAGGCACAUCGU [Exclusion 1 V64] (Eterna round: R96, puzzle: Exclusion 1)	FALSE

Given AACAGCACAGGAUAUACAUGAGGAUCACCCAUGUGAGAAUUAAGUGGCGUACCACAAAGUAGAAGGGUGCUGGA [Mat - Exclusion 3 - JL mod - D39] (Eterna round: R96, puzzle: Exclusion 3) , state whether its apparent KD of MS2 coat protein is at least 50 nM.
FALSE

// repeat for ACAACAUGAGGAUCACCCAUGUGUGUUGUCCCAUGUGUGUAUAAGGAUAUAUGAAGGAAGGAGGAAUAGAAGGUAUAGAAGGAG [Am I even doing this right] (Eterna round: R96, puzzle: Exclusion NG 3) and report
FALSE

And then AACCUAAGGCAUAGCUUUAGGUUUACAUGAGGAUCACCCAUGUAGGAUAUGGUAGGCAUAGCUUACCAGAAGGACAUGAAAAUU [Mat - Exclusion NG 3 - Mod of JL - D31] (Eterna round: R96, puzzle: Exclusion NG 3) , what is it?
FALSE

# iterate: GGGAGGGAUACAGGAUAUAUGACAUGAGGAUACAUGAGACAUACAAACAUGAGGAUCACCCAUGUAUAGAAGGGUAAGGGAGGG [Another guess] (Eterna round: R96, puzzle: Exclusion NG 2)
TRUE

And then CUCCGGCGUGUAGGAUAUGGAUCCGAUUAGGAUCCAGAAGGACAUGAGGAUCACCCAUGUACAUGUAAACAGUCAUCACCGGAC [salish99_ExNG1_r04_204] (Eterna round: R96, puzzle: Exclusion NG 1) , what is it?
FALSE

###

Test system: MS2 coat protein
Assay Comment: apparent KD of MS2 coat protein; higher = weaker reporter binding
Study Conditions: Eterna round: R107; input ligand: none
Measured apparent KD of MS2 coat protein values are reported for all entries that follow.
Numeric only. Scale: nM

Some entries whose results are on file:
Sequence	Units	apparent KD of MS2 coat protein
UAUCCACAUGAGGAUCACCCAUGUUAGGAAGGAGCGGUGAAUGAACCAGGUAGGUCGCCUAGGUGAGGAUCAUCUAUGGAUUCGU [Exclusion - Arginine A (Freestyle 11)]	nM	30.2
UAUCGUCAGACGGCCGCCACUAGAACAUGAGGAUCACCCAUGUACGGCCGCUCGGUCCUCAUGACUAGGACCGGGUCUGACGAAU [(Trp1)-(Ms2)-(T)'-(M)'-(Trp2)_Design22]	nM	7.31
UGUACUAUGUGAAGGAGCGAGAAUCCUACAUGAGGAUCACCCAUGUAAGAGCGAAAGCUCACUCAGGUAGGUCGCACAUAGUACU [#17 Same State - Arginine B]	nM	42.9
GCCGGACUUUCGGCCGCCACUGAGAGAGUCGUGUGAACAUGAGGAUCACCCAUGUAAUAUAUAUACAGGACCGGGAGGGUCCGGC [4.T]	nM	12.1

Endpoint output: apparent KD of MS2 coat protein of GGUGGCUGGAUCGAUACCAGCCACCACCGAUAGACCACAUGAGGAUCACCCAUGUUGGGUGGCCCUUGGCAGCGGUCCAGCUGCC [#1 Same State - Theophylline B Attempt #5 (HarryS)] . Value?
587

Same question for AAAAUAUAGACGGCCGCCACUAUAAACAUGAGGAACAUGAGGAUCACCCAUGUAUGAGGAUCACCUAGGACCGGGUCAUAUAAAA [AstrosExyTryB#1] please.
43

###

Test system: K4 kissing-loop RNA reporter
Assay Comment: apparent KD of K4 kissing-loop reporter; higher = weaker reporter binding
Study Conditions: Eterna round: R107; input ligand: theophylline 20 uM
Measured apparent KD of K4 kissing-loop reporter, listed per entry for reference.
Answer format: numeric, nM implied, no suffix.

Answered examples (5):
Sequence	apparent KD of K4 kissing-loop reporter / nM
UGUUUUUACUGAAGGAGCGGCAAUUGAUACGUAGAUAUAGUGAUGUUAUAUAAGAUAGAGAGCCAGGUAGGUCGCAGAUUUUUUC [ExArgB.Y]	172
UCCUAGGCUCGAAAGAGCCUAGGAUUAUCUCAGGAUAUCCGGAAACGGAGAAGGGAGAAACUAGUGAUGUUAGGGAUUCCCUCUU	135
UUUUAAUGCAGUGAUGUUGCUAAUAAAACAGAGGAUAUGCAUGGAAGCAGAAGGCUGAAAUAUUAUACUUUAAUAAAUUAUAUUU [JR_SSFMNA_Sub010]	119
GACCUAAGCUAUGAUACCAGUCUGGCACGAAGAAGUGAUGUUUCCCAGCGUUUGUCACUUGACCCUUGGCAGCAUGCGAUCAGCU [theeternabot_sameState_KL_Theo_B_29]	165
CAUACGCAUGGAGGAUAUGAGAUUUCUCAUAUUAUUUAAUAUUCUCAGUGAUGUUGAGAAUUAAACUCAGAAGGCCAUGUGUAUG [Ex FMN B 4]	181

Please turn your attention to the following entry.
// map AAAGCAUUGAGAAGGAGCGUGUCGUGGAGUGAUGUUCCAUUGUAGACCUAAGGUCUACAAGCACAGGUAGGUCGCUCAUUGCUAA [JR_Nu_SSArginiB_Sub023] to recorded apparent KD of K4 kissing-loop reporter (system: K4 kissing-loop RNA reporter);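 further: bound reporter read as fluorescence of individual clusters on recovered sequencing chips by microscopy, with normalized cluster intensities fitted with a binding model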
138

###

System: MS2 coat protein
Assay Comment: apparent KD of MS2 coat protein; designed switch direction (-1 OFF switch, 1 ON switch): 1; higher = weaker reporter binding
Study Conditions: Eterna round: R95; input ligand: microRNA oligo, concentration not stated
The entries below are paired with their reported apparent KD of MS2 coat protein.
# unit: nM | format: bare number

Consider the reported apparent KD of MS2 coat protein for these sequences:
Sequence	Experimental System	apparent KD of MS2 coat protein, nM
GUCCAACAUGAGGAUCACCCAUGUCGGGCGUGCACAGGAUAUCGCGCCGGGAAAGCCCAGCGAGAAGGGUGAUCGA [Atveinla] (puzzle: Same State 1)	MS2 coat protein	57.8
ACGUGGCUGCCGCAGGAUAUACCCUGUUCCACAUGAGGAUCACCCAUGUUUACGAACUAUGAGAGGUAGAAGGGUGGAUGUCAUU [Beenvean] (puzzle: Same State 2)	MS2 coat protein	23.7
UCUUGGUUUUUGCUCGUUUUUUGUGUUGAACAUGAGGAUCACCCAUGUAUUGUACGGUCCGGUUUAAUAGUGGUCCG [JMF 14] (puzzle: Sensor for hsa-mir-208a)	MS2 coat protein	15.4
ACAAGCUUUUCUGUAGUGAAAGGUGGGAUACAUGAGGAUCACCCAUGUAUUGUUGUCAAUAUUUGUCCUCGUCUUAU [JR_SHM208A_Sub086] (puzzle: Sensor for hsa-mir-208a)	MS2 coat protein	11

Please look at the following sequence next.
Notebook entry, MS2 coat protein assay: apparent KD of MS2 coat protein of GAGGCACAUGAGGAUCACCCAUGUGGGUAGAACAUAGGAUAUCACCAACAAAUUACCCGGUGAGAAGGAUGAUGCC [Zalaarza] (puzzle: Same State 1) = ?
151

###

Test system: MS2 coat protein
Assay Comment: apparent KD of MS2 coat protein; designed switch direction (-1 OFF switch, 1 ON switch): -1; higher = weaker reporter binding
Study Conditions: input ligand: none
Quick rule: apparent KD of MS2 coat protein of at least 40 nM means 1.0, below that means 0.0.

Decide: is the reported value of apparent KD of MS2 coat protein for CUUUAGCAAGCGAGAUCCCACAUGAGGAUCACCCAUGUGCAUCCAGAAUUACUGGGUGCAAAAGCUCGUCUUAUAUC [mod-Eli newdang-1b] (Eterna round: R97, puzzle: Sensor, turn-off variant 1) equal to or greater than 40 nM?
1.0

Lookup UGCCGUUUAGGAUAUACAUGAGGAUCACCCAUGUGACACACAUAUUUUACAAAACCAUGUAGAAGGAAACGGCA [E3-1.0] (Eterna round: R96, puzzle: Exclusion 3)
1.0

Same again, this time with GCACUGGCAGGAUAUACAUGAGGAUCACCCAUGUGAUCCCUUAGGUACAAAAGUACAAGUAGAAGGGCCUGUGC [Omei Ex3 Model Bachelor's Dilema v44] (Eterna round: R97, puzzle: Exclusion 3)
1.0

Queued: AAGCAUGGAGGAUAUACAUGAGGAUCACCCAUGUCCAGGUCCACGGGUAUUUUGUUGCGUAGAAGGCCAUGUAG [Eternabot (L2) Solution 21] (Eterna round: R97, puzzle: Exclusion 3)
1.0

Next sequence: GCACGGAGUGUAGGAUAUCUGUGCGAUUAGCUCAGAGAAGGACACAUGAGGAUCACCCAUGUUACCUCAAUUAGCCUUCCGUGC [Eli exng1 - 032] (Eterna round: R96, puzzle: Exclusion NG 1)
0.0

Now consider AGCAUGCGGAAGGAUAUUUGGAGUAGCGACUCGGGAGAAGGUCUGACAUGAGGAUCACCCAUGUGGAGAGACUG [Eternabot (L1) Solution 59] (Eterna round: R97, puzzle: Exclusion 6) and answer again.
0.0

# repeat for AUUGUUUAUGUAGGAUAUGCCUGGCGUGCCUUUGCAGAAGGACAUGAGGAUCACCCAUGUAUUGCGGUCUGCGUUCAGAUCGCG [salish99_ExNG1_r4_034] (Eterna round: R96, puzzle: Exclusion NG 1)
0.0

Now this one: GGUCAUCAAGUCAGGAUAUCGUCAAAUCAAUCAGGCGAGAAGGGACAUGAGGAUCACCCAUGUCGACUCAUCAC [Ex4 #4] (Eterna round: R97, puzzle: Brourd's mod of Exclusion 4)
0.0
